Origin of measurements: ChEMBL document CHEMBL2169800

biological target: Prostaglandin G/H synthase 1 (Ovis aries); assay: Inhibition of ovine COX1 pre-incubated for 10 mins before arachidonic acid substrate addition by enzyme immunoassay
Sequence (P05979 whole entry): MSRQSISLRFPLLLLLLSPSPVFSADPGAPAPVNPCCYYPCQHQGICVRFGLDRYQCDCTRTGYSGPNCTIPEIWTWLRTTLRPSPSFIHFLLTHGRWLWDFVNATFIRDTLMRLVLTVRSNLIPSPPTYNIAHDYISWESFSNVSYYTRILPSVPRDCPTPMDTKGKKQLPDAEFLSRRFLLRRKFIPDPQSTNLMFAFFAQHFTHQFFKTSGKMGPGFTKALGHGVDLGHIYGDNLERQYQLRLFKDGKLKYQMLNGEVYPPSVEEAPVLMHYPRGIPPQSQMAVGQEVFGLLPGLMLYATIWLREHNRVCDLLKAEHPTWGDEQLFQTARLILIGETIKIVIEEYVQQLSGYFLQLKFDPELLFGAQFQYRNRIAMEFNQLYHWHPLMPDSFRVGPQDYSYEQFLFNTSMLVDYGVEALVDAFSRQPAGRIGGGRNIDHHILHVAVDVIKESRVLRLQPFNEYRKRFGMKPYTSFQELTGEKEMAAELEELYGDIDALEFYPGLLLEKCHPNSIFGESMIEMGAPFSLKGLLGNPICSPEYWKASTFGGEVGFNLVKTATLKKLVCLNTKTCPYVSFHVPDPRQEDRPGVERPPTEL
pIC50: −log10 of the molar value.
experimentalReadout: pIC50

molecule=C[C@@H](C(=O)O)c1ccc2c3cc(Cl)ccc3n(C(=O)c3ccc(Cl)cc3)c2c1 experimentalreadout=pIC50 result="< 4.00"

What value of pIC50 has been recorded for this entry: CC(C(=O)O)c1ccc2c(c1)[nH]c1ccc(Cl)cc12 (racemic) [CARPROFEN]
4.65

What value of pIC50 has been recorded for this entry: CC(C(=O)O)c1ccc2c(c1)[nH]c1ccccc12 (racemic)
< 4.00

What value of pIC50 has been recorded for this entry: CC(C(=O)O)c1ccc2c3cc(Cl)ccc3n(Cc3ccc(Cl)cc3)c2c1 (racemic)
< 4.00

What value of pIC50 has been recorded for this entry: COc1ccc(Cn2c3ccc(Cl)cc3c3ccc(C(C)C(=O)O)cc32)cc1 (racemic)
< 4.00
